Origin of measurements: paper PMC9320114

Measurement Target: UniProt P06276
Sequence (P06276 29-602): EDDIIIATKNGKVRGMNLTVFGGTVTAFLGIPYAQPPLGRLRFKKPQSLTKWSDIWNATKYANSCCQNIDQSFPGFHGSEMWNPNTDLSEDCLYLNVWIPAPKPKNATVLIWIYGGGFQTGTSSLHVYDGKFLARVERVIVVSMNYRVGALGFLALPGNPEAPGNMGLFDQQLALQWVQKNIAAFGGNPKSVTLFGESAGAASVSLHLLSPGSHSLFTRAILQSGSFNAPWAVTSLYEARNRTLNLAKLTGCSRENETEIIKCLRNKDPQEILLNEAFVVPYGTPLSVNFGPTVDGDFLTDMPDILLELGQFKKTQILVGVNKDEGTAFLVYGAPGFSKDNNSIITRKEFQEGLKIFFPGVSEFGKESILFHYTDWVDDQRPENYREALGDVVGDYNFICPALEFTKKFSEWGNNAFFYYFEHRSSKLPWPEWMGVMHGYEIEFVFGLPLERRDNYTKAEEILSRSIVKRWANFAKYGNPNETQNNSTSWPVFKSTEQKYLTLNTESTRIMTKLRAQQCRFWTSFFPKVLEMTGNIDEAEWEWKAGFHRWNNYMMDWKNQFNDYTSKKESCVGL
Assay Notes: biochemical
Format: biochemical
Assay Context: read-out: hBChE IC50
Give IC50 for every item shown.

# lookup: IC50 of CCCCCCN(Cc1ccc(C#Cc2ccc(CCCC)cc2)cc1)c1ccc(F)c(C(=O)OC)c1 [Compound 7]
~19.7 µM

# lookup: IC50 of CCCCc1ccc(C#Cc2ccc(CN(CC3CC3)c3ccc(O)c(C(=O)O)c3)cc2)cc1 [Compound 5]
2.4 µM

###

Measurement Target: MurA (Escherichia coli, UniProt P0A749)
Sequence (P0A749 whole entry): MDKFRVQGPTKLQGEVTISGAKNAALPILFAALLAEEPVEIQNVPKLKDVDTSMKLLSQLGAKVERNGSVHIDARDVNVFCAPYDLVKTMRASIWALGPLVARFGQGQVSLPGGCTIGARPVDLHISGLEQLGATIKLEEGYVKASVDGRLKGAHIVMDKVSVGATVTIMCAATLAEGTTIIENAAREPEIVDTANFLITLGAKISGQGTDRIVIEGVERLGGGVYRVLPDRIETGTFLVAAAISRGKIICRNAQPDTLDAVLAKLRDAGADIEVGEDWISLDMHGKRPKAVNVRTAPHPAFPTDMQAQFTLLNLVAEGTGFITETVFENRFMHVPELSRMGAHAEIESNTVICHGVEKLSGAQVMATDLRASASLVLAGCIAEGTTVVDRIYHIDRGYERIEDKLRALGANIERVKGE
Assay Notes: Inhibition of MurA, colorimetric malachite green method
Assay type: biochemical, bacterial
Assay Context: residual activity at 100 µM; Table 1
Give MurA RA (%) for every item shown.
Your answer should be a plain number; it is taken to be in %.

# lookup: MurA RA (%) of CCCCCCN(Cc1ccc(C#Cc2ccc(CCCC)cc2)cc1)c1ccc(O)c(C(=O)O)c1
0

# lookup: MurA RA (%) of COC(=O)c1cc(N(Cc2ccc(C#Cc3ccc(C(C)(C)C)cc3)cc2)CC2CC2)ccc1F
10

# lookup: MurA RA (%) of CCCCc1ccc(C#Cc2ccc(CN(CC3CC3)c3ccc(O)c(C(=O)O)c3)cc2)cc1
0

# lookup: MurA RA (%) of Cc1ccc(C#Cc2ccc(CN(CCC(C)(C)C)c3ccc(O)c(C(=O)O)c3)cc2)cc1
14

# lookup: MurA RA (%) of CCCCc1ccc(C#Cc2ccc(CN(C(=O)CC(C)(C)C)c3ccc(F)c(C(=O)O)c3)cc2)cc1
0

# lookup: MurA RA (%) of CC(C)(C)c1ccc(C#Cc2ccc(CN(CC3CC3)c3ccc(O)c(C(=O)O)c3)cc2)cc1
64

# lookup: MurA RA (%) of CCCCCCN(Cc1ccc(C#Cc2ccc(CCCC)cc2)cc1)c1ccc(F)c(C(=O)OC)c1
100

# lookup: MurA RA (%) of CCCCCCN(Cc1ccc(C#Cc2ccc(CCCC)cc2)cc1)C(=O)c1ccc(O)c(C(=O)O)c1
0

# lookup: MurA RA (%) of C[C@@H]1O[C@@H]1P(=O)(O)O [Fosfomycin, reference compound]
0

# lookup: MurA RA (%) of CCCCCCN(Cc1ccc(C#Cc2ccc(C(C)(C)C)cc2)cc1)c1ccc(F)c(C(=O)O)c1
0

# lookup: MurA RA (%) of CC(C)(C)CCN(Cc1ccc(C#Cc2ccc(F)cc2)cc1)C(=O)c1ccc(C(=O)O)cc1
58

# lookup: MurA RA (%) of CC(C)(C)CCN(Cc1ccc(C#Cc2ccc(F)cc2)cc1)C(=O)c1ccc(O)c(C(=O)O)c1
0

# lookup: MurA RA (%) of CCCCCCN(Cc1ccc(C#Cc2ccc(CCCC)cc2)cc1)c1ccc(F)c(C(=O)O)c1
0
